Target: T1, N2 peptide (non-muscle myosin neo-epitope N2 12mer sequence)
T1 construct: also called N2 12-mer peptide
T1 peptide: LMKNMDPLNDNV
Assay: SPR (BIACORE X100), antibody captured by anti-human Fc, N2 peptide in solution
pKd: −log10 of the molar value.
OUTCOME MEASURE: pKd

As a guide, the following entries are already answered.
{"columns": ["BINDER", "RECORDED VALUE"],
 "data": [
  ["Chimeric 21G6, human heavy chain constant region IgG1 (wild type) (antibody, V domains shown, also called CHIgG1 / Ch; ch21G6 IgG1) VH: QVQLQQPGAELVKPGASVKLSCKASGYTFTSYYMYWVKQRPGQGLEWIGGINPSNGGTNFNEKFKSKATLTVDKSSSTAYMQLSSLTSEDSAVYYCTRWGYDREWFAYWGQGTLVTVSA VL: DIVMTQAAPSVPVTPGESVSISCRSSKSLLHSNGNTYLYWFLQRPGQSPQVLIYRMSNLASGVPDRFSGSGSGTAFTLRISRVEAEDVGVYYCMQHLEYPFTFGSGTKLEIKR", "5.15 to 5.22"],
  ["H2-21G6 / L2-21G6, human IgG1 N297Q (antibody, V domains shown, also called H2/L2 N297Q) VH: QVQLVQSGAEVKKPGASVKVSCKASGYTFTSYYMYWVRQAPGQGLEWIGGINPSNGGTNFNEKFKSKATMTVDKSTSTAYMELRSLRSDDSAVYYCTRWGYDREWFAYWGQGTLVTVSS VL: DIVMTQSPLSLPVTPGEPASISCRSSKSLLHSNGNTYLYWFLQKPGQSPQLLIYRMSNLASGVPDRFSGSGSGTDFTLKISRVEAEDVGVYYCMQHLEYPFTFGQGTKLEIKR", "5.43 to 5.51"]
]}

Attention now turns to another entry.
-- ask Please look up its pKd: H1-21G6 / L1-21G6, wild type human IgG1 (antibody, V domains shown, also called H1/L1) VH: QVQLVQSGAEVVKPGASVKLSCKASGYTFTSYYMYWVKQAPGQGLEWIGGINPSNGGTNFNEKFKSKATLTVDKSASTAYMELSSLRSEDTAVYYCTRWGYDREWFAYWGQGTLVTVSS VL: DIVMTQSPATLSVSPGERATISCRSSKSLLHSNGNTYLYWFQQKPGQPPKVLIYRMSNLASGVPARFSGSGSGTDFTLTISSVEPEDFATYYCMQHLEYPFTFGGGTKLEIKR
-- reply 5.11 to 5.18
